SYSTEM_UNDER_TEST: T1, human IL12Rβ1 extracellular domain Fc-fusion (human, UniProt P42701 24-545)
T1 construct: extracellular domain; bought; also called IL12Rβ1-Fc; hIL-12Rβ1-Fc; not shown: Fc part, captured by anti-hIgG
METHOD_SUMMARY: competition ELISA, coated IL-12 + IL12Rβ1-Fc
pIC50: −log10 of the molar value.
# maps each entry to its pIC50
ASSAY_METRIC: pIC50

[
  {
    "BINDER": "CD4#8-35GS-IL12Rb1#31 (bispecific antibody, also called BI#41; T023200041) EVQLVESGGGSVQPGGSLTLSCGTSGRTFNVMGWFRQAPGKEREFVAAVRWSSTGIYYTQYADSVKSRFTISRDNAKNTVYLEMNSLKPEDTAVYYCAADTYNSNPARWDGYDFRGQGTLVTVSSGGGGSGGGGSGGGGSGGGGSGGGGSGGGGSGGGGSEVQLVESGGGLVQTGGSLRLSCAASGRTPSIIAMGWFRQTPGKEREFVGEIILSKGFTYYADSVKGRFTISRANAKNTITMYLQMNSLKSEDTAVYYCAARQNWSGNPTRTNEYEYWGQGTLVTVSS",
    "RECORDED_VALUE": 7.55
  },
  {
    "BINDER": "IL12Rb1#30: 148C09 (VHH, also called IL12Rβ1#30; LG148C09) VHH: EVQLVESGGGLVQTGGSLRLSCAASGRTPRLVAMGWFRQTPGKEREFVGEIILSKGFTYYADSVKGRFTISRVNAKNTITMYLQMNSLKSEDTAVYYCAGRQNWSGSPARTNEYEYWGQGTLVTVSS",
    "RECORDED_VALUE": 8.43
  },
  {
    "BINDER": "IL12Rb1#31-35GS-CD4#8 (bispecific antibody, also called BI#47; T023200047) EVQLVESGGGLVQTGGSLRLSCAASGRTPSIIAMGWFRQTPGKEREFVGEIILSKGFTYYADSVKGRFTISRANAKNTITMYLQMNSLKSEDTAVYYCAARQNWSGNPTRTNEYEYWGQGTLVTVSSGGGGSGGGGSGGGGSGGGGSGGGGSGGGGSGGGGSEVQLVESGGGSVQPGGSLTLSCGTSGRTFNVMGWFRQAPGKEREFVAAVRWSSTGIYYTQYADSVKSRFTISRDNAKNTVYLEMNSLKPEDTAVYYCAADTYNSNPARWDGYDFRGQGTLVTVSS",
    "RECORDED_VALUE": 7.62
  }
]
